- assay_info: Cmax in Sprague-Dawley rat at 5 mg/kg, po
- Assay type: ADME, organism-based
- Design: dose 5 mg/kg, route oral
- measurement_conditions: in vivo
metric: Cmax (µM)
# value in µM; strip the unit string

Ask: Which Cmax is listed for CC(C)n1ncnc1-c1cn2c(n1)-c1ccc(O[C@@H](C)C(N)=O)cc1OCC2 ?
Reply: 5.4

---

- test_system: Phosphatidylinositol 4,5-bisphosphate 3-kinase catalytic subunit alpha isoform (Homo sapiens, UniProt P42336)
- Sequence (P42336 whole entry, canonical isoform): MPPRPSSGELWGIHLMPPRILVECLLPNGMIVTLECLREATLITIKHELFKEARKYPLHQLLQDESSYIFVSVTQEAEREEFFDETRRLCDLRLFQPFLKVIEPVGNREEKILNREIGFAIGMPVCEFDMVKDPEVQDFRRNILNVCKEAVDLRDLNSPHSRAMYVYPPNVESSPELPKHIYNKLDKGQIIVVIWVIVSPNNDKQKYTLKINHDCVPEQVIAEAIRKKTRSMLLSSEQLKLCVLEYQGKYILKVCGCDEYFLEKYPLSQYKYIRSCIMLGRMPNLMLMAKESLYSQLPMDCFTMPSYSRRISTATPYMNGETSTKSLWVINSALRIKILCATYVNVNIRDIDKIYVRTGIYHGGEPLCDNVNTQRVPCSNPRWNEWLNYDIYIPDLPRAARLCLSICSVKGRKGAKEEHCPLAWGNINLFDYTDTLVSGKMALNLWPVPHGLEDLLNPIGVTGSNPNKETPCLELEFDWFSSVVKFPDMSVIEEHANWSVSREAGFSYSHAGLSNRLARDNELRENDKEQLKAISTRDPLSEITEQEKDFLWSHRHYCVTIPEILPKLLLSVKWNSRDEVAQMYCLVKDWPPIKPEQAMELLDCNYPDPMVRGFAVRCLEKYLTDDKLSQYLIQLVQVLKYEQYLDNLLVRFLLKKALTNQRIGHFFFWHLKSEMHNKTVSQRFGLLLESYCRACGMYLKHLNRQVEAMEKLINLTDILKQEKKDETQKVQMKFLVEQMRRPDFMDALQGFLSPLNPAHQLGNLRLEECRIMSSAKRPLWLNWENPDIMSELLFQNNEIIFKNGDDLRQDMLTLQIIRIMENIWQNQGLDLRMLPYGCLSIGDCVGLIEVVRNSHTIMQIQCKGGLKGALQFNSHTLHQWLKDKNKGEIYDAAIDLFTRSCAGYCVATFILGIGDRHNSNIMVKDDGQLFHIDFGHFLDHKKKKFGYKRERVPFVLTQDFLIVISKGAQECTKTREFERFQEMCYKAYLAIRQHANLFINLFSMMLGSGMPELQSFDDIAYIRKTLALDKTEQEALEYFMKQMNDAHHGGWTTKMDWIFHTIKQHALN
- assay_info: Inhibition of recombinant PI3K alpha (unknown origin) using PIP2 as substrate by fluorescence polarization assay
- measurement_conditions: read-out: Ki(app)
pKi: −log10 of the molar value.
Use YES when the recorded pKi is no lower than 10; use NO when it is lower.

Previously resolved entries follow.
| smiles_structure | assigned_class |
| --- | --- |
| CC(C)n1ncnc1-c1cn2c(n1)-c1ccc(N3CCC[C@H]3C(N)=O)cc1OCC2 | YES |
| CC(C)n1ncnc1-c1cn2c(n1)-c1cnc(OCC(N)=O)cc1OCC2 | NO |
| CC(C)n1ncnc1-c1cn2c(n1)-c1ccc(N3CCCC[C@H]3C(N)=O)cc1OCC2 | NO |
| CC(C)n1ncnc1-c1cn2c(n1)-c1ccc(OCC(N)=O)cc1OCC2 | NO |
| CC(C)n1ncnc1-c1cn2c(n1)-c1cnc(N)cc1OCC2 | NO |

Okay, now this compound:
Ask: State whether the measured pKi reaches 10, counting equality as reaching it, for CC(C)n1ncnc1-c1cn2c(n1)-c1cnc(N(C)CC(N)=O)cc1OCC2
Reply: NO
